Where do the numbers come from? From paper PMC8041284.

biological target: BTK (Homo sapiens, UniProt Q06187); experiment: biochemical; settings: read-out: BTK inhibition (%), 0.75 uM BTK, […] probe 3l, 15 min preincubation
Sequence (Q06187 402-655 limits assumed): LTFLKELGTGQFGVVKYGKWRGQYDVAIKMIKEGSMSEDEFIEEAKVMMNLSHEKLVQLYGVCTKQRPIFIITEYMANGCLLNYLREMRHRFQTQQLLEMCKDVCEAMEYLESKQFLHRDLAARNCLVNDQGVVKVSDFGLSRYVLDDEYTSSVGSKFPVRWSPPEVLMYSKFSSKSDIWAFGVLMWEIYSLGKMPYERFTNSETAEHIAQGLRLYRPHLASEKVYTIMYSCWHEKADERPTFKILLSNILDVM
inhibition at 10 µM values for the compounds below.
Test Readout: inhibition at 10 µM (%)

| Smiles Notation | System Tested | Number |
| --- | --- | --- |
| CC(C)(C)C(=O)Oc1ccc(S(=O)(=O)Nc2ccccc2C(=O)NCC(=O)O)cc1 | BTK (Homo sapiens, UniProt Q06187) | 11.7 |
| CC(C)n1ncnc1-c1cn2c(n1)-c1ccc(O[C@@H](C)C(N)=O)cc1OCC2 | BTK (Homo sapiens, UniProt Q06187) | -8.3 |
| CCCCCCCCCCCCCCCc1cccc(O)c1C(=O)O | BTK (Homo sapiens, UniProt Q06187) | -19.3 |
| C=C(C)[C@@H]1CC[C@]2(C(=O)O)CC[C@]3(C)[C@H](CC[C@@H]4[C@@]5(C)CC[C@H](O)C(C)(C)[C@@H]5CC[C@]43C)[C@@H]12 | BTK (Homo sapiens, UniProt Q06187) | 3.9 |

###

target: BTK (Homo sapiens); assay: biochemical; details: read-out: BTK inhibition (%), 0.75 uM BTK, […] probe 3l, 15 min preincubation
Test Readout: inhibition at 10 µM (%)

| Compound | System Tested | Test Readout | Number |
| --- | --- | --- | --- |
| Cc1cc(-c2nc(-c3ccc(OC(F)(F)F)cc3)no2)nn1Cc1ccnc(N2CCN(C3CC3)CC2)c1 | BTK (Homo sapiens) | inhibition at 10 µM | -1.5 |
| C[N+]12CCc3cc4c(cc3C1(O)Cc1ccc3c(c1C2)OCO3)OCO4 (stereo not drawn) | BTK (Homo sapiens) | inhibition at 10 µM | -18.5 |
| NC(=O)Cc1c[nH]c2ccccc12 | BTK (Homo sapiens) | inhibition at 10 µM | 3.1 |
| Cc1ccc(C(=O)c2ccc(CC(=O)O)n2C)cc1 | BTK (Homo sapiens) | inhibition at 10 µM | 9.4 |
| COc1ccc(CNc2nc(N3CCC[C@H]3CO)ncc2C(=O)NCc2ncccn2)cc1Cl | BTK (Homo sapiens) | inhibition at 10 µM | -63.8 |
| CN(C)CCN1C(=O)c2cccc3cc(N)cc(c23)C1=O | BTK (Homo sapiens) | inhibition at 10 µM | 0.8 |
| CCn1nc(C2CCN(C(=O)CCO)CC2)nc1-c1cnc(N)c(-c2nnc(C(C)(C)C)o2)n1 | BTK (Homo sapiens) | inhibition at 10 µM | 9.7 |
| CN(C)CCCNC(=O)c1ccc(-c2cc(O)c3ncccc3c2)cc1 | BTK (Homo sapiens) | inhibition at 10 µM | 19.3 |
| O=C1C2CCN(CC2)C1(CO)CO | BTK (Homo sapiens) | inhibition at 10 µM | 0.8 |
| C[C@@H](OC[C@@]1(c2ccccc2)CC[C@]2(CCC(=O)N2)CN1)c1cc(C(F)(F)F)cc(C(F)(F)F)c1 | BTK (Homo sapiens) | inhibition at 10 µM | -48.6 |
| Cc1ccc(NCCCc2ccccc2)c(N)c1 | BTK (Homo sapiens) | inhibition at 10 µM | 17 |
| CC(=O)C1=C(O)C=C2Oc3c(C(C)=O)c(O)c(C)c(O)c3[C@@]2(C)C1=O | BTK (Homo sapiens) | inhibition at 10 µM | 17.1 |
| Cc1cn([C@@H]2C[C@@H](O)[C@H](CO)O2)c(=O)[nH]c1=O | BTK (Homo sapiens) | inhibition at 10 µM | -6.2 |
| C[C@](N)(Cc1ccc(O)c(O)c1)C(=O)O | BTK (Homo sapiens) | inhibition at 10 µM | -18.7 |
| Cc1cccc(C)c1N(CC(=O)Nc1ccc(-c2ncon2)cc1)C(=O)C1CCS(=O)(=O)CC1 | BTK (Homo sapiens) | inhibition at 10 µM | 2.3 |
| C=C(C)[C@@H]1CC[C@]2(C=O)CC[C@]3(C)[C@H](CC[C@@H]4[C@@]5(C)CC[C@H](O)C(C)(C)[C@@H]5CC[C@]43C)[C@@H]12 | BTK (Homo sapiens) | inhibition at 10 µM | 19.3 |
| COC(=O)Nc1nc2ccc([S+]([O-])c3ccccc3)cc2[nH]1 (stereo not drawn) | BTK (Homo sapiens) | inhibition at 10 µM | 17.9 |
| O=c1cccc2n1C[C@@H]1CNC[C@H]2C1 | BTK (Homo sapiens) | inhibition at 10 µM | -10.1 |

###

biological target: BTK (Homo sapiens); test: biochemical; conditions: read-out: BTK inhibition (%)
# Lookup of reported inhibition at 10 µM keyed by entry

| Molecule | inhibition at 10 µM (%) |
| --- | --- |
| CC(C)C(Br)C(=O)NC(N)=O (stereo not drawn) | 12.4 |
| C[C@@]12C[C@@H](c3ccoc3)OC(=O)[C@@H]1CC[C@]1(C)[C@H]2[C@@H]2C=C[C@@]1(O)C(=O)O2 | 0 |
| CCC1(O)C(=O)OCc2c1cc1n(c2=O)Cc2cc3cc(O)ccc3nc2-1 (stereo not drawn) | 6.2 |
| Cc1cccc(C)c1NC1=NCCCS1 | -21.8 |
| CC(=O)O[C@H]1CC[C@H]2[C@@H]3CCC4=CC(=O)CCC4=C3C=C[C@]12C | 2.3 |
| Cc1c(N[C@@H](c2nnc(-c3ccc(C#N)cc3)o2)[C@H](C)O)ccc(C#N)c1Cl | 17.8 |
| O=C(NCC1CCOCC1)c1cnc(Nc2ccc(Cl)cc2Cl)nc1C(F)(F)F | -9.3 |
| CCN1C[C@]2(OC(=O)c3ccccc3NC(C)=O)CC[C@H](OC)[C@@]34[C@@H]2C[C@@H]([C@@H]13)[C@@]1(O)C[C@H](OC)[C@H]2C[C@@H]4[C@]1(O)[C@H]2OC | 21 |
| CCC1(c2cccc(O)c2)CCCCN(C)C1 (stereo not drawn) | 7.8 |

###

Attribute: BTK inhibition (%)
molecular target: BTK (Homo sapiens); details: 0.75 uM BTK, […] probe 3l, 15 min preincubation; 10 µM; inhibitor

| Compound | BTK inhibition (%) |
| --- | --- |
| O=C(OC1C[C@H]2CC[C@@H](C1)[N+]21CCCC1)C(O)(c1ccccc1)c1ccccc1 (stereo partly shown) | 7 |
| CN(C)C(=O)Oc1cccc([N+](C)(C)C)c1 | -7.7 |
| C[N+]1(C)[C@@H]2CC(OC(=O)[C@H](CO)c3ccccc3)C[C@H]1[C@@H]1O[C@@H]12 (stereo partly shown) | 10.9 |
| C[N+](C)(C)CCCCCCCCCC[N+](C)(C)C | 11.7 |
| CN1[C@@H]2CC[C@H]1CC(OC(=O)[C@H](CO)c1ccccc1)C2 (stereo partly shown) | -14.8 |
| COC(=O)C1=C(C)NC(C)=C(C(=O)OCCN2CCN(C(c3ccccc3)c3ccccc3)CC2)C1c1cccc([N+](=O)[O-])c1 (stereo not shown) | 34.2 |
| C[C@@H]1CC[C@@]2(OC1)O[C@H]1C[C@H]3[C@@H]4CC=C5C[C@@H](O[C@@H]6O[C@H](CO)[C@@H](O[C@@H]7O[C@@H](C)[C@H](O)[C@@H](O)[C@H]7O)[C@H](O)[C@H]6O[C@@H]6O[C@@H](C)[C@H](O)[C@@H](O)[C@H]6O)CC[C@]5(C)[C@H]4CC[C@]3(C)[C@H]1[C@@H]2C | 38.1 |
| CC(=O)O[C@H]1C[C@@H]2CC[C@@H]3[C@H](CC[C@@]4(C)[C@H]3C[C@H]([N+]3(C)CCCCC3)[C@@H]4OC(C)=O)[C@@]2(C)C[C@@H]1[N+]1(C)CCCCC1 | -21 |
| CC1=C[C@]23C(=O)[C@@H](C=C(CO)[C@@H](O)[C@]2(O)[C@H]1O)[C@H]1[C@@H](C[C@H]3C)C1(C)C | -3.1 |
| C[C@H]1CC[C@]2(NC1)O[C@H]1C[C@H]3[C@@H]4CC[C@H]5C[C@@H](O)CC[C@]5(C)[C@H]4CC[C@]3(C)[C@H]1[C@@H]2C | 13.9 |
| O=P1(N(CCCl)CCCl)NCCCO1 (stereo not shown) | -19.3 |
| C=C(C)[C@H]1Cc2c(ccc3c2O[C@@H]2COc4cc(OC)c(OC)cc4[C@@H]2C3=O)O1 | 6.2 |
| c1cc2c(cc1[C@H]1OC[C@H]3[C@@H]1CO[C@@H]3c1ccc3c(c1)OCO3)OCO2 | -24.1 |
| O=C(/C=C/c1ccccc1)OC[C@H]1O[C@@H](O[C@@H]2OC=C[C@H]3[C@H](O)[C@@H]4O[C@]4(CO)[C@@H]23)[C@H](O)[C@@H](O)[C@@H]1O | -1.6 |
| CC(C)c1ccc(C=O)cc1 | -18.5 |
| O=C(NC(=O)c1c(F)cccc1F)Nc1ccc(OC(F)(F)C(F)OC(F)(F)F)c(Cl)c1 (stereo not shown) | 22.4 |
| COc1ccc(C=O)cc1 | 17 |
| CCOC(=O)C1=C[C@@H](OC(CC)CC)[C@H](NC(C)=O)[C@@H](N)C1 | -10.2 |
| CCN(CC)CCOC(=O)C(O)(c1ccccc1)c1ccccc1 | 8.6 |
| c1cc2c(cc1[C@H]1OC[C@H]3[C@@H]1CO[C@H]3c1ccc3c(c1)OCO3)OCO2 | 29.3 |
| NC(=O)c1ncn([C@@H]2O[C@H](CO)[C@@H](O)[C@H]2O)n1 | -11.7 |
| Cc1cc(C(C#N)c2ccc(Cl)cc2)c(Cl)cc1NC(=O)c1cc(I)cc(I)c1O (stereo not shown) | 20.2 |
| CN[C@H]1C[C@@H](N)[C@H](O)[C@@H](O[C@@H]2O[C@H](CO)[C@H](O)[C@@H]3OC4(O[C@H]23)O[C@H]([C@@H](N)CO)[C@H](O)[C@H](O)[C@H]4O)[C@@H]1O (stereo partly shown) | 0 |
| c1c2c(cc3c1OCO3)-c1cc3ccc4c(c3c[n+]1CC2)OCO4 | -46.8 |
| O=C/C=C/c1ccccc1 | 3.1 |
| CC(=O)N1C[C@H](O)C[C@H]1C(=O)O | 8.6 |
| CC(=O)OC1CN2CCC1CC2 (stereo not shown) | 4.7 |
| COc1ccc(C(CN(C)C)C2(O)CCCCC2)cc1 (stereo not shown) | 6.2 |
| C=C[C@@H]1C2=CCOC(=O)C2=CO[C@H]1O[C@@H]1O[C@H](CO)[C@@H](O)[C@H](O)[C@H]1O | -0.8 |
| CC(C)OC(=O)[C@H](C)N[P@](=O)(CO[C@H](C)Cn1cnc2c(N)ncnc21)Oc1ccccc1 | -3.1 |
| CCN(Cc1ccc(Cl)nc1)/C(=C/[N+](=O)[O-])NC | 7 |
